All figures here come from patent US6835382B2.

Biological target: murine E^d MHC class II allele (Mus musculus, UniProt P01904+P01915)
Sequence (P01904 26-255): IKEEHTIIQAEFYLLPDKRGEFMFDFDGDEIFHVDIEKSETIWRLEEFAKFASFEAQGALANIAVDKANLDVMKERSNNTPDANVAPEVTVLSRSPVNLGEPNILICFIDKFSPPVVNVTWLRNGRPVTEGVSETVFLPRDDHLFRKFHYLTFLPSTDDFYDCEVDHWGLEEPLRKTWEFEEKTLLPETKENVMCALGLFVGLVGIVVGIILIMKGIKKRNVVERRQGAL
Sequence (P01915 27-264 limits assumed): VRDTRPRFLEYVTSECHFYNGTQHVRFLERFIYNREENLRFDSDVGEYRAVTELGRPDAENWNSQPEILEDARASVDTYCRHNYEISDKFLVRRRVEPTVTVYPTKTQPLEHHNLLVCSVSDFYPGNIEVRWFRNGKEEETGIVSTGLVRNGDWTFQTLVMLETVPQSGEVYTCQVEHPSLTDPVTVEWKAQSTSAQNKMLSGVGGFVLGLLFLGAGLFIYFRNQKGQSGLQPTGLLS
Assay: processed antigen assay, E^d allele (APC pulsed with native HEL)
Format: cell-based
Design: The A20 and CH27 B cell lymphoma lines express H-2^d and H-2^k alleles, respectively; endogenous in cells; host or cells: A20 B cell lymphoma (mitomycin C-treated or paraformaldehyde-fixed)
Details: Table 29; native HEL prepulse 20 μM; AE peptide 64 μM; supernatant dilution 1:8 (second value)
Non-standard residues stand in square brackets, D forms with d. hArg = N=C(N)NCCCC[C@H](N)C(=O)O
READOUT_LABEL: T cell response relative to baseline (None = 1.0), 20 μM HEL E^d, second value

SUBSTANCE | MEASURED_VALUE
Ac-LRMK HArg PK-NH2 (Ac-LRMK[hArg]PK-NH2; SMILES CSCC[C@H](NC(=O)[C@H](CCCNC(=N)N)NC(=O)[C@H](CC(C)C)NC(C)=O)C(=O)N[C@@H](CCCCN)C(=O)N[C@@H](CCCCNC(=N)N)C(=O)N1CCC[C@H]1C(=O)N[C@@H](CCCCN)C(N)=O) [AE227] | 0.36
Ac-LRMK N PK-NH2 (Ac-LRMKNPK-NH2) [AE232] | 0.83
Ac-LRMK Y PK-NH2 (Ac-LRMKYPK-NH2; not fully specified; printed as Ac-LRMK Y PK-NH2) [AE235] | 0.56
Ac-LRMK K PK-NH2 (Ac-LRMKKPK-NH2) [AE229] | 0.62
Ac-LRMK E PK-NH2 (Ac-LRMKEPK-NH2) [AE231] | 1.1
Ac-LRMK Q PK-NH2 (Ac-LRMKQPK-NH2) [AE233] | 0.68
Ac-LRMKLPK-NH2 [AE114] | 0.44
Ac-LRMK F PK-NH2 (Ac-LRMKFPK-NH2) [AE234] | 0.88
